Biological target: HLA-A*01:01
Assay: IEDB peptide-MHC binding, purified MHC/direct/fluorescence; filed as Kd, often an IC50 or EC50 that approximates it; bounds were set here for any values at or beyond the usual limits of such assays
Details: source organism: Escherichia coli O157:H7

{"entry sequence": "LPEFERRTL", "Kd": "≥ 20 µM"}
{"entry sequence": "PLKVKDIPF", "Kd": "≥ 20 µM"}

###

Target: HLA-A*30:01
Assay: IEDB peptide-MHC binding, purified MHC/competitive/radioactivity; filed as Kd, often an IC50 or EC50 that approximates it; bounds were set here for any values at or beyond the usual limits of such assays
Conditions: source organism: Vaccinia virus WR
assay endpoint: log10 of Kd (log10 of the value in nM)

{"entry sequence": "SVKCTHPLV", "test result": -0.01}
{"entry sequence": "AILSLNLRI", "test result": 2.19}
{"entry sequence": "YTRVLKPSV", "test result": 2.87}
{"entry sequence": "AIRAGYSIV", "test result": 0.15}
{"entry sequence": "GNRGSTSFK", "test result": 0.31}
{"entry sequence": "KVKKLNRCA", "test result": 0.49}
{"entry sequence": "HAFSSLLSG", "test result": 3.05}
{"entry sequence": "RLKDYQHFV", "test result": -0.40}
{"entry sequence": "RVFNEYGFV", "test result": 2.15}
{"entry sequence": "KVKDLFNTK", "test result": 1.58}
{"entry sequence": "MTSTRTIIL", "test result": 2.43}
{"entry sequence": "KQRLTNLEK", "test result": -0.02}

###

Biological target: HLA-B*57:01
Experiment: IEDB peptide-MHC binding, purified MHC/competitive/fluorescence; filed as Kd, often an IC50 or EC50 that approximates it; bounds were set here for any values at or beyond the usual limits of such assays
Settings: source organism: Giardia lamblia ATCC 50803
assay endpoint: Kd

{"entry sequence": "LLDDGWAGE", "target or system": "HLA-B*57:01", "test result": "≥ 20 µM"}

###

Molecular target: HLA-A*01:01
Assay: IEDB peptide-MHC binding, purified MHC/competitive/radioactivity; filed as Kd, often an IC50 or EC50 that approximates it; bounds were set here for any values at or beyond the usual limits of such assays
Settings: source organism: Homo sapiens
pKd: −log10 of the molar value.

{"entry sequence": "YTDFPCQYV", "pKd": 8.74}

###

Target: HLA-A*29:02
Assay: IEDB peptide-MHC binding, purified MHC/competitive/radioactivity; filed as Kd, often an IC50 or EC50 that approximates it; bounds were set here for any values at or beyond the usual limits of such assays
Settings: source organism: Mammarenavirus machupoense
pKd: −log10 of the molar value.
pKd: recorded values

{"entry sequence": "LCMLNNSLYY", "result qualifier": "=", "pKd": 8.14}
{"entry sequence": "VGIPTHRHL", "result qualifier": "≤", "pKd": 4.10}

###

Molecular target: HLA-B*40:01
Experiment: IEDB peptide-MHC binding, purified MHC/direct/fluorescence; filed as Kd, often an IC50 or EC50 that approximates it; bounds were set here for any values at or beyond the usual limits of such assays
Conditions: source organism: Mycobacterium tuberculosis C
assay endpoint: Kd

{"entry sequence": "IIRTENRPL", "test result": "≥ 20 µM"}

###

Target: HLA-A*02:19
Experiment: IEDB peptide-MHC binding, purified MHC/competitive/fluorescence; filed as Kd, often an IC50 or EC50 that approximates it; bounds were set here for any values at or beyond the usual limits of such assays
Settings: source organism: Bacillus cereus G9241
assay endpoint: Kd

{"entry sequence": "DEEAINLFH", "assay endpoint": "Kd", "test result": "≥ 20 µM"}

###

Target: HLA-A*29:02
Experiment: IEDB peptide-MHC binding, purified MHC/competitive/fluorescence; filed as Kd, often an IC50 or EC50 that approximates it; bounds were set here for any values at or beyond the usual limits of such assays
Conditions: source organism: Bacillus anthracis str. A0488

{"entry sequence": "YTVQGAGLM", "Kd (nM)": 26}

###

Target: HLA-B*27:05
Assay: IEDB peptide-MHC binding, purified MHC/direct/fluorescence; filed as Kd, often an IC50 or EC50 that approximates it; bounds were set here for any values at or beyond the usual limits of such assays
Conditions: source organism: Ebola virus - Gabon (1994-1997)
pKd: −log10 of the molar value.

{"entry sequence": "AKATGRYNL", "pKd": "≤ 4.70"}

###

Target: HLA-B*27:03
Experiment: IEDB peptide-MHC binding, purified MHC/competitive/fluorescence; filed as Kd, often an IC50 or EC50 that approximates it; bounds were set here for any values at or beyond the usual limits of such assays
Conditions: source organism: Bacillus cereus G9241
assay endpoint: Kd

{"entry sequence": "DEEAINLFH", "test result": "≥ 20 µM"}

###

Target: HLA-A*30:01
Test: IEDB peptide-MHC binding, purified MHC/competitive/radioactivity; filed as Kd, often an IC50 or EC50 that approximates it; bounds were set here for any values at or beyond the usual limits of such assays
Details: source organism: Lymphocytic choriomeningitis virus (strain Armstrong)
assay endpoint: Kd

{"entry sequence": "VCLSGEGWPY", "assay endpoint": "Kd", "test result": "≥ 33.2 µM"}

###

Biological target: HLA-A*02:01
Assay: IEDB peptide-MHC binding, purified MHC/competitive/radioactivity; filed as Kd, often an IC50 or EC50 that approximates it; bounds were set here for any values at or beyond the usual limits of such assays
Settings: source organism: Dengue virus 2 Jamaica/1409/1983

{"entry sequence": "FLFLMSGKGI", "unit name": "nM", "Kd": 39.6}
{"entry sequence": "ALIFILLTAV", "unit name": "nM", "Kd": 0.498}
{"entry sequence": "KMEKASFIEV", "unit name": "nM", "Kd": 143}

###

Biological target: HLA-A*02:03
Experiment: IEDB peptide-MHC binding, purified MHC/competitive/fluorescence; filed as Kd, often an IC50 or EC50 that approximates it; bounds were set here for any values at or beyond the usual limits of such assays
Conditions: source organism: Desulfatibacillum alkenivorans AK-01
pKd: −log10 of the molar value.

{"entry sequence": "KLGKAGYVV", "pKd": 8.64}

###

Target: HLA-A*24:03
Test: IEDB peptide-MHC binding, purified MHC/competitive/fluorescence; filed as Kd, often an IC50 or EC50 that approximates it; bounds were set here for any values at or beyond the usual limits of such assays
Settings: source organism: Bacillus cereus G9241

{"entry sequence": "DEEAINLFH", "target or system": "HLA-A*24:03", "Kd": "≥ 20 µM"}

###

Target: HLA-A*11:01
Test: IEDB peptide-MHC binding, purified MHC/competitive/radioactivity; filed as Kd, often an IC50 or EC50 that approximates it; bounds were set here for any values at or beyond the usual limits of such assays
Conditions: source organism: Vaccinia virus WR
Some sequences, each annotated with its measured log10(Kd).
assay endpoint: log10(Kd) (log10 of the value in nM)

{"entry sequence": "MLPESDLDK", "test result": 3.32}
{"entry sequence": "AIITPVVFY", "test result": -0.44}
{"entry sequence": "NQNLIPSTVK", "test result": 2.56}
{"entry sequence": "YTIERIFNAK", "test result": 1.56}
{"entry sequence": "IMLPESDLDK", "test result": 2.59}
{"entry sequence": "ITTLLNETAK", "test result": 1.09}
{"entry sequence": "EVGSIRCVK", "test result": 2.52}
{"entry sequence": "ELESLSKRER", "test result": 3.63}
{"entry sequence": "DLTALLSCIR", "test result": 3.19}
{"entry sequence": "SIKIKQDVR", "test result": 3.73}
{"entry sequence": "GFCIPSRSK", "test result": 3.28}
{"entry sequence": "AVRAFLLRHY", "test result": 3.03}
{"entry sequence": "YTHGIVFDGK", "test result": 0.93}
{"entry sequence": "PVDTEFINK", "test result": 1.95}
{"entry sequence": "KAFKNNLSR", "test result": 2.18}
{"entry sequence": "LIVTFRERY", "test result": 2.27}
{"entry sequence": "CICYGSYSLY", "test result": 2.53}
{"entry sequence": "ELQSVLVTTY", "test result": 2.78}
{"entry sequence": "KMSTDNAVY", "test result": 2.26}
{"entry sequence": "GVSYEVFDDY", "test result": 2.70}
{"entry sequence": "IIVAGFSGK", "test result": 1.40}
{"entry sequence": "NIRLTDTEYR", "test result": 4.24}
{"entry sequence": "NSSIISLFY", "test result": 1.65}
{"entry sequence": "FFVFIHMVR", "test result": 3.58}
{"entry sequence": "TIERIFNAK", "test result": 0.06}
{"entry sequence": "NTILLSDKGK", "test result": 2.28}
{"entry sequence": "VSSLVKNVNK", "test result": 1.60}
{"entry sequence": "HSNLTETFR", "test result": 1.61}
{"entry sequence": "ALEVLMSPCR", "test result": 3.80}
{"entry sequence": "NIERQDYRR", "test result": 4.08}
{"entry sequence": "KLCKNHAEK", "test result": 1.30}
{"entry sequence": "NTVVRDFENY", "test result": 2.72}
{"entry sequence": "LIPVSEVLLK", "test result": 2.78}
{"entry sequence": "QALNSVANR", "test result": 2.93}
{"entry sequence": "VLDIISSKQY", "test result": 3.99}
{"entry sequence": "RQQLEDIFMR", "test result": 4.01}
{"entry sequence": "DIVNEHDIKY", "test result": 4.10}
{"entry sequence": "WIKNLETYTR", "test result": 3.80}
{"entry sequence": "NAVYQCRKLR", "test result": 4.25}
{"entry sequence": "FIKPVSDLY", "test result": 2.92}
{"entry sequence": "LLKYAGLTIK", "test result": 2.21}
{"entry sequence": "SVDIETAIR", "test result": 1.72}
{"entry sequence": "ASLKNTISK", "test result": 0.72}
{"entry sequence": "EINEWLSSK", "test result": 2.23}
{"entry sequence": "SILDRIDTR", "test result": 2.70}
{"entry sequence": "DFSKSTSPTR", "test result": 3.65}
{"entry sequence": "AIITPVVFYR", "test result": 1.05}
{"entry sequence": "STVKTNLYMK", "test result": 0.60}
{"entry sequence": "LMTLDDLAIK", "test result": 2.68}
{"entry sequence": "SVFKGFSDK", "test result": -0.07}
{"entry sequence": "DVLEIINDK", "test result": 3.66}
{"entry sequence": "AFVRFSTDK", "test result": 3.93}
{"entry sequence": "DISKLTNFK", "test result": 2.53}
{"entry sequence": "IIKHIYEQY", "test result": 3.62}
{"entry sequence": "CIPSRSKMLK", "test result": 0.63}
{"entry sequence": "TLVPVLEKK", "test result": 1.20}
{"entry sequence": "ISIYSRPKIK", "test result": 3.22}
{"entry sequence": "VLMHPDFCK", "test result": 0.64}
{"entry sequence": "QSYRQYRNY", "test result": 3.20}
{"entry sequence": "AVNTPVSMTY", "test result": 1.32}
{"entry sequence": "AATIQTPTK", "test result": 0.98}
{"entry sequence": "VFSFWLLCK", "test result": 1.08}
{"entry sequence": "ASTTENAAY", "test result": 2.49}
{"entry sequence": "KSLLLLNTR", "test result": 2.06}
{"entry sequence": "SSGFYFEIAR", "test result": 1.96}
{"entry sequence": "LFKNVRLLK", "test result": 2.95}
{"entry sequence": "FSAGAGVLDK", "test result": 2.35}
{"entry sequence": "KLFKKTDFK", "test result": 0.95}
{"entry sequence": "NFSIIELPY", "test result": 3.03}
